- MEASUREMENT_TARGET: HRH2 (Homo sapiens)
- Construct: purchased Promega (in-house HiBiT-GPCR construct library, NanoBRET)
- Sequence (P25021 whole entry): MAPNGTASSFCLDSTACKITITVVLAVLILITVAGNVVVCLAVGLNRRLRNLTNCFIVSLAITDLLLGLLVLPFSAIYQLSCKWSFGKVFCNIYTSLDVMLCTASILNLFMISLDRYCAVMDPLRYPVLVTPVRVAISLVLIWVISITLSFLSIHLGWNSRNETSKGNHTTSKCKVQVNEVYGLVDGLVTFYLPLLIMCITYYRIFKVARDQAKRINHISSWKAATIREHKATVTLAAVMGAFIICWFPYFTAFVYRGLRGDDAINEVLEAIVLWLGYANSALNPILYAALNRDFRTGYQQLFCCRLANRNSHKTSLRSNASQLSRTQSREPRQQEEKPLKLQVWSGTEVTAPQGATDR
- MEASUREMENT_NOTES: NanoBRET screen HiBiT-HRH2 in HEK293
- Format: binding
- CONDITION_PARAMETERS: HRH2; tracer 1μM
Overview of reported NanoBRET Fold Response across a group of compounds:
Please give only the number in your answer, with no unit.

Some solved cases for reference:
Can you share its NanoBRET Fold Response? I mean this compound: O=C(CCc1ccc2n1[B-](F)(F)[N+]1=C(c3ccc[nH]3)C=CC1=C2)NCc1ccc(C(=O)NCCOCCC(=O)N[C@@H]2CC[C@@]3(O)[C@H]4Cc5ccc(O)c6c5[C@@]3(CCN4CC3CC3)[C@H]2O6)cc1 [Naltrexone-3-NB590] 1.34

Can you share its NanoBRET Fold Response? I mean this compound: "Cc1cc2c(s1)Nc1ccccc1N=C2N1CCN(CCCNC(=O)CCOCCOCCOCCOCCNC(=O)CCc2ccc3n2[B-](F)(F)[N+]2=C(c4ccc[nH]4)C=CC2=C3)CC1" 0.85

Can you share its NanoBRET Fold Response? I mean this compound: "O=C(CCOCCOCCOCCOCCNC(=O)CCc1ccc2n1[B-](F)(F)[N+]1=C(c3ccc[nH]3)C=CC1=C2)NCCCN1CCN(C2=Nc3ccccc3Oc3ccc(Cl)cc32)CC1" 1.06

Can you share its NanoBRET Fold Response? I mean this compound: "CC(C)N(CC[C@H](c1ccccc1)c1cc(CCNC(=O)c2ccc(CNC(=O)CCc3ccc4n3[B-](F)(F)[N+]3=C(c5ccc[nH]5)C=CC3=C4)cc2)ccc1O)C(C)C" 0.87

Can you share its NanoBRET Fold Response? I mean this compound: "CCCn1c(=O)c2[nH]c(-c3ccc(OCC(=O)NCCNC(=O)CCOCCNC(=O)c4ccc(CNC(=O)CCc5ccc6n5[B-](F)(F)[N+]5=C(c7ccc[nH]7)C=CC5=C6)cc4)cc3)nc2n(CCC)c1=O" 1.15

Can you share its NanoBRET Fold Response? I mean this compound: "O=C(CCc1ccc2n1[B-](F)(F)[N+]1=C(c3ccc[nH]3)C=CC1=C2)NCCOCCOCCNC(=O)OCCOCCN1CCN(C2=Nc3ccccc3Sc3ccccc32)CC1" 1.05

Can you share its NanoBRET Fold Response? I mean this compound: Cc1nc2n(c(=O)c1CCN1CCC(c3noc4cc(F)ccc34)CC1)CCCC2OC(=O)NCCOCCOCCOCCOCCNC(=O)CCc1ccc2n1[B-](F)(F)[N+]1=C(c3ccc[nH]3)C=CC1=C2 (stereo not shown) 1.13

Can you share its NanoBRET Fold Response? I mean this compound: "COc1ccccc1N1CCN(CCCCN2C(=O)c3ccc(CNC(=O)CCOCCNC(=O)c4ccc(CNC(=O)CCc5ccc6n5[B-](F)(F)[N+]5=C(c7ccc[nH]7)C=CC5=C6)cc4)cc3C2=O)CC1" 1.08

Can you share its NanoBRET Fold Response? I mean this compound: "N#CN=C(NCCCOc1cccc(CN2CCCCC2)c1)NCCNC(=O)CCOCCOCCOCCOCCNC(=O)CCc1ccc2n1[B-](F)(F)[N+]1=C(c3ccc[nH]3)C=CC1=C2" 3.65

New cases:
Can you share its NanoBRET Fold Response? I mean this compound: "CC(C)N(CC[C@H](c1ccccc1)c1cc(CCNC(=O)CCOCCOCCOCCOCCNC(=O)CCc2ccc3n2[B-](F)(F)[N+]2=C(c4ccc[nH]4)C=CC2=C3)ccc1O)C(C)C" 0.82

###

- MEASUREMENT_TARGET: PTGDR2 (Homo sapiens, UniProt Q9Y5Y4)
- Construct: purchased Promega (in-house HiBiT-GPCR construct library, NanoBRET)
- Sequence (Q9Y5Y4 whole entry): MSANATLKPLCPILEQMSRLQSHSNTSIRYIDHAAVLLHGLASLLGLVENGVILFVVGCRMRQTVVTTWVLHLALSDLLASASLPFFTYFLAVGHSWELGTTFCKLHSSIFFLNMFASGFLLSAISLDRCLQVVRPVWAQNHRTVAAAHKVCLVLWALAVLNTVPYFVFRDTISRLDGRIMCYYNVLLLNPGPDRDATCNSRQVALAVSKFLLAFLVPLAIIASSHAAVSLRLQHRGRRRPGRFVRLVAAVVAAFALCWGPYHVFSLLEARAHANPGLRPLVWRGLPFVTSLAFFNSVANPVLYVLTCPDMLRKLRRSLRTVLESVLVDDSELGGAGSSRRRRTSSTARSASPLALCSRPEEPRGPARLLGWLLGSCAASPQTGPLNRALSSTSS
- MEASUREMENT_NOTES: NanoBRET screen HiBiT-PTGDR2 in HEK293
- Assay type: binding
- CONDITION_PARAMETERS: PTGDR2; tracer 0.1μM
Overview of reported NanoBRET Fold Response across a group of molecules:
Please give only the number in your answer, with no unit.

Some solved cases for reference:
Can you share its NanoBRET Fold Response? I mean this molecule: O=C(CCOCCOCCOCCOCCNC(=O)CCc1ccc2n1[B-](F)(F)[N+]1=C(c3ccc[nH]3)C=CC1=C2)NCCCN1CCN(C2=Nc3ccccc3Oc3ccc(Cl)cc32)CC1 [Loxapine-a-2-NB590] 1.06

Can you share its NanoBRET Fold Response? I mean this molecule: Cc1nc2n(c(=O)c1CCN1CCC(c3noc4cc(F)ccc34)CC1)CCCC2OC(=O)NCCOCCOCCOCCOCCNC(=O)CCc1ccc2n1[B-](F)(F)[N+]1=C(c3ccc[nH]3)C=CC1=C2 (stereo not shown) [Risperidone-2-NB590] 0.99

New cases:
Can you share its NanoBRET Fold Response? I mean this molecule: N#CN=C(NCCCOc1cccc(CN2CCCCC2)c1)NCCNC(=O)CCOCCOCCOCCOCCNC(=O)CCc1ccc2n1[B-](F)(F)[N+]1=C(c3ccc[nH]3)C=CC1=C2 [Aminopotentidine-2-NB590] 0.98

Can you share its NanoBRET Fold Response? I mean this molecule: Cc1cc2c(s1)Nc1ccccc1N=C2N1CCN(CCCNC(=O)CCOCCOCCOCCOCCNC(=O)CCc2ccc3n2[B-](F)(F)[N+]2=C(c4ccc[nH]4)C=CC2=C3)CC1 [Olanzapine-a-2-NB590] 0.97

Can you share its NanoBRET Fold Response? I mean this molecule: O=C(CCc1ccc2n1[B-](F)(F)[N+]1=C(c3ccc[nH]3)C=CC1=C2)NCCOCCOCCNC(=O)OCCOCCN1CCN(C2=Nc3ccccc3Sc3ccccc32)CC1 [Quetiapine-a-2-NB590] 0.96

###

- MEASUREMENT_TARGET: P2RY4 (Homo sapiens, UniProt P51582)
- Construct: purchased Promega (in-house HiBiT-GPCR construct library, NanoBRET)
- Sequence (P51582 whole entry): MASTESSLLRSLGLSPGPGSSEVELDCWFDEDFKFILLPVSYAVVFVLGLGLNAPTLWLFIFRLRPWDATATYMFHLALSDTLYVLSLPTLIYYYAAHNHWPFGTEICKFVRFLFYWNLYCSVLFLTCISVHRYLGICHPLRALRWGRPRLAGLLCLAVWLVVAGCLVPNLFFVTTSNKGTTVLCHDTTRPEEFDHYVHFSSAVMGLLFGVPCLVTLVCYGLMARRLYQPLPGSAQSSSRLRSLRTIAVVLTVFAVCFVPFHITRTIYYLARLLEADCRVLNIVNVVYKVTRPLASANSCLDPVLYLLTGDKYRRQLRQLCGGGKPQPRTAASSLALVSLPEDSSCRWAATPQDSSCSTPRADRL
- MEASUREMENT_NOTES: NanoBRET screen HiBiT-P2RY4 in HEK293
- Type: binding
- CONDITION_PARAMETERS: P2RY4; tracer 0.1μM
Exam item: assign condition met to entries whose NanoBRET Fold Response is below 1 and condition not met to entries at or above 1. Note that a value of exactly 1 receives condition not met.

Examples from the recorded data:
Problem: For the compound "N#CN=C(NCCCOc1cccc(CN2CCCCC2)c1)NCCNC(=O)CCOCCOCCOCCOCCNC(=O)CCc1ccc2n1[B-](F)(F)[N+]1=C(c3ccc[nH]3)C=CC1=C2" , is NanoBRET Fold Response under 1? condition not met

Problem: For the compound "O=C(CCc1ccc2n1[B-](F)(F)[N+]1=C(c3ccc[nH]3)C=CC1=C2)NCCOCCOCCNC(=O)OCCOCCN1CCN(C2=Nc3ccccc3Sc3ccccc32)CC1" , is NanoBRET Fold Response under 1? condition not met

Problem: For the compound Cc1nc2n(c(=O)c1CCN1CCC(c3noc4cc(F)ccc34)CC1)CCCC2OC(=O)NCCOCCOCCOCCOCCNC(=O)CCc1ccc2n1[B-](F)(F)[N+]1=C(c3ccc[nH]3)C=CC1=C2 (centres unmarked) , is NanoBRET Fold Response under 1? condition not met

Problem: For the compound "O=C(CCOCCOCCOCCOCCNC(=O)CCc1ccc2n1[B-](F)(F)[N+]1=C(c3ccc[nH]3)C=CC1=C2)NCCCN1CCN(C2=Nc3ccccc3Oc3ccc(Cl)cc32)CC1" , is NanoBRET Fold Response under 1? condition met

New cases:
Problem: For the compound "CCCn1c(=O)c2[nH]c(-c3ccc(OCC(=O)NCCNC(=O)CCOCCNC(=O)c4ccc(CNC(=O)CCc5ccc6n5[B-](F)(F)[N+]5=C(c7ccc[nH]7)C=CC5=C6)cc4)cc3)nc2n(CCC)c1=O" , is NanoBRET Fold Response under 1? condition not met

###

- MEASUREMENT_TARGET: HTR6 (Homo sapiens, UniProt P50406)
- Construct: purchased Promega (in-house HiBiT-GPCR construct library, NanoBRET)
- Sequence (P50406 whole entry): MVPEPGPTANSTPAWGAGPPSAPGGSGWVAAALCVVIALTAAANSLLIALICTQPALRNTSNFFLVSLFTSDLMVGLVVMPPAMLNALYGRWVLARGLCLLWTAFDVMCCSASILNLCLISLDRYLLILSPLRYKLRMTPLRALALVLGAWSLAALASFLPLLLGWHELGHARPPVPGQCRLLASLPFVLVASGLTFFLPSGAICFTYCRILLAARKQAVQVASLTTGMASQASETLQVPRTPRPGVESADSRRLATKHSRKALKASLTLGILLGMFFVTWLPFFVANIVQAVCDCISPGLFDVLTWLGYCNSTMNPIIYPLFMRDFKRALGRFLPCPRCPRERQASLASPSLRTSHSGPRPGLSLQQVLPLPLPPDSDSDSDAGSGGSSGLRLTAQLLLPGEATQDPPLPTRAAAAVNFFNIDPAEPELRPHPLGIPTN
- MEASUREMENT_NOTES: NanoBRET screen HiBiT-HTR6 in HEK293
- Format: binding
- CONDITION_PARAMETERS: HTR6; tracer 0.1μM
- Experimental: Each tracer candidate was screened across the entire library of HiBiT-GPCR constructs using NanoBRET as the detection modality. As depicted in Figure 4A, the specificity of interactions was evaluated through decrease in BRET due to competitive displacement of a bound tracer by excess parental compound. Each tracer was analyzed for binding to each HiBiT-GPCR fusion in the absence and in the presence of competing parental compound. […]
Overview of reported NanoBRET Fold Response across a group of compounds:
Please give only the number in your answer, with no unit.

Can you share its NanoBRET Fold Response? I mean this compound: "N#CN=C(NCCCOc1cccc(CN2CCCCC2)c1)NCCNC(=O)CCOCCOCCOCCOCCNC(=O)CCc1ccc2n1[B-](F)(F)[N+]1=C(c3ccc[nH]3)C=CC1=C2" 0.99

New cases:
Can you share its NanoBRET Fold Response? I mean this compound: "O=C(CCc1ccc2n1[B-](F)(F)[N+]1=C(c3ccc[nH]3)C=CC1=C2)NCCOCCOCCNC(=O)OCCOCCN1CCN(C2=Nc3ccccc3Sc3ccccc32)CC1" 0.90

Can you share its NanoBRET Fold Response? I mean this compound: Cc1nc2n(c(=O)c1CCN1CCC(c3noc4cc(F)ccc34)CC1)CCCC2OC(=O)NCCOCCOCCOCCOCCNC(=O)CCc1ccc2n1[B-](F)(F)[N+]1=C(c3ccc[nH]3)C=CC1=C2 (centres unmarked) 1.00

Can you share its NanoBRET Fold Response? I mean this compound: "O=C(CCOCCOCCOCCOCCNC(=O)CCc1ccc2n1[B-](F)(F)[N+]1=C(c3ccc[nH]3)C=CC1=C2)NCCCN1CCN(C2=Nc3ccccc3Oc3ccc(Cl)cc32)CC1" 1.04

Can you share its NanoBRET Fold Response? I mean this compound: "CC(C)N(CC[C@H](c1ccccc1)c1cc(CCNC(=O)CCOCCOCCOCCOCCNC(=O)CCc2ccc3n2[B-](F)(F)[N+]2=C(c4ccc[nH]4)C=CC2=C3)ccc1O)C(C)C" 0.89
